Measured values drawn from ChEMBL document CHEMBL1130090 for this set.

system: OVCAR-3; experiment: Concentration which reduced cell growth to 50 % of level against OVCAR-3 ovarian cancer line; format: functional; conditions: Homo sapiens
Please note: GI50 exactly at 20 µM is NO. Only values below 20 µM get YES.

Dear colleague, could you confirm whether GI50 of COc1ccccc1-c1cc(O)c2c(C)cc(C)nc2n1 falls below 20 µM? Thanks.
NO

Hello, I'm reviewing records and need to know if GI50 of COc1cccc(-c2cc(O)c3cccnc3n2)c1 is below 20 µM. Could you check?
YES

Consider COc1ccc(-c2cc(O)c3c(C)cc(C)nc3n2)cc1 . Does its GI50 lie strictly below 20 µM?
NO

Determine if COc1cccc(-c2cc(O)c3cc(C)cnc3n2)c1 shows GI50 strictly lower than 20 µM.
YES

Given the entry Oc1cc(-c2ccc(Cl)cc2)nc2ncccc12 , would its reported GI50 be below 20 µM?
NO

# strict comparison: is reported GI50 < 20 µM? input = COc1ccccc1-c1cc(O)c2c(C)ccnc2n1
YES

Does the reported GI50 of COc1ccc(-c2cc(O)c3c(C)ccnc3n2)cc1 stay below 20 µM?
YES

is_below(GI50, 20 µM) for Cc1ccc2c(O)cc(-c3ccc(F)cc3)nc2n1 ?
NO

Does this compound meet the criterion GI50 < 20 µM? Cc1cnc2nc(-c3ccc(F)cc3)cc(O)c2c1
NO

GI50 strictly < 20 µM for this compound? COc1ccc(-c2cc(O)c3ccc(C)nc3n2)cc1
NO

Consider Cc1cnc2nc(-c3ccc(Cl)cc3)cc(O)c2c1 . Does its GI50 lie strictly below 20 µM?
YES

Hello, is GI50 of the following compound strictly smaller than 20 µM? COc1cccc(-c2cc(O)c3cc(Cl)cnc3n2)c1
YES

State whether 20 µM exceeds GI50 recorded for COc1cccc(-c2cc(O)c3c(C)ccnc3n2)c1 .
YES
